# Assay Remarks: Maximum plasma concentration at a dose of 3 mg/Kg in dog when given orally
# Assay type: ADME, organism-based, Canis lupus familiaris
# Set-up: dose 3 mg/Kg, route oral
# Test Parameters: po
Outcome Measure: Cmax (ng/mL)
Please state the figure in ng/mL; there is no need to write the unit.

# Cmax of O[C@@H]1[C@H](O)CO[C@H]1n1cc(-c2ccccc2)c2c(Nc3ccc(F)cc3)ncnc21 = 628

---

# Assay Remarks: Time required to be halved at a dose of 1 mg/kg in dog when given i.v.
# Format: ADME, organism-based, Canis lupus familiaris
# Parameters: dose 1 mg/kg, route intravenous
# Test Parameters: in vivo, iv
Outcome Measure: half-life (h)
Report as a plain number; the unit h is understood.

The compound identified as O[C@@H]1[C@H](O)CO[C@H]1n1cc(-c2ccccc2)c2c(Nc3ccc(F)cc3)ncnc21 registered its half-life at 3.9

---

# Assay Remarks: Time required to be halved at a dose of 1 mg/Kg in rat when given i.v.
# Type: ADME, organism-based
# Test Parameters: in vivo, iv
Outcome Measure: half-life (h)
Numbers only here, please. The scale is h.

Reported half-life for O[C@@H]1[C@H](O)CO[C@H]1n1cc(-c2ccccc2)c2c(Nc3ccc(F)cc3)ncnc21 was 3.2

---

# Assay Remarks: Maximum plasma concentration at a dose of 3 mg/Kg in rat when given orally
# Assay type: ADME, organism-based
# Parameters: dose 3 mg/Kg, route oral
# Test Parameters: po
Outcome Measure: Cmax (ng/mL)
Report as a plain number; the unit ng/mL is understood.

Form: compound = O[C@@H]1[C@H](O)CO[C@H]1n1cc(-c2ccccc2)c2c(Nc3ccc(F)cc3)ncnc21 ; Cmax = 135

---

# Assay Remarks: Area under the plot of plasma concentration at a dose of 3 mg/Kg in dog when given orally
# Format: ADME, Canis lupus familiaris
# Test Parameters: po, read-out: AUC 0-24h
Outcome Measure: AUC
Remember to quote the unit after the number.

Entry O[C@@H]1[C@H](O)CO[C@H]1n1cc(-c2ccccc2)c2c(Nc3ccc(F)cc3)ncnc21 , AUC reported as 5340 ng·h/mL

---

# Assay Remarks: Bioavailability at a dose of 3 mg/Kg in rat when given orally
# Format: ADME, organism-based
# Test Parameters: in vivo, po
Outcome Measure: bioavailability (%)
Numbers only; they are read as %.

Item: O[C@@H]1[C@H](O)CO[C@H]1n1cc(-c2ccccc2)c2c(Nc3ccc(F)cc3)ncnc21 | bioavailability: 61.2

---

# Assay Remarks: Distributed volume at a dose of 1 mg/Kg in rat when given i.v.
# Format: ADME, organism-based
# Test Parameters: in vivo, iv
Outcome Measure: Vd
Could you give the number and then its unit, please?

// Vd value for O[C@@H]1[C@H](O)CO[C@H]1n1cc(-c2ccccc2)c2c(Nc3ccc(F)cc3)ncnc21 : 6.9 L/kg

---

# Assay Remarks: Plasma clearance at a dose of 3 mg/Kg in rat when given orally
# Format: ADME, organism-based
# Test Parameters: po
Outcome Measure: CL/F (mL/min/kg)
The reply should contain only the number, in mL/min/kg.

CL/F reading for O[C@@H]1[C@H](O)CO[C@H]1n1cc(-c2ccccc2)c2c(Nc3ccc(F)cc3)ncnc21 : 25

---

# Assayed Target: Adenosine kinase (Homo sapiens, UniProt P55263)
# Sequence (P55263 whole entry): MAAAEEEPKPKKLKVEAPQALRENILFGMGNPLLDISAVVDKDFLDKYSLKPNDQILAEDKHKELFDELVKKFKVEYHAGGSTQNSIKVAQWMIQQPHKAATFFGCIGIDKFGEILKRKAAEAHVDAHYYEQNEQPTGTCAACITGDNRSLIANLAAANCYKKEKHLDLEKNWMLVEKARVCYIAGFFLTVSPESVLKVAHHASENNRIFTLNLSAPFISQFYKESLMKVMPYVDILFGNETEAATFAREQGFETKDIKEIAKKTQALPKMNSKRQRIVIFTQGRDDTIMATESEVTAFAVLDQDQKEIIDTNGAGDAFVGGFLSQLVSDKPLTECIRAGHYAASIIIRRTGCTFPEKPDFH
# Assay Remarks: Inhibitory concentration against human recombinant adenosine kinase using [14C]AMP as radioligand
Below, each entry is listed alongside its reported pIC50.
Give only the number. pIC50 is defined as minus log10 of concentration in molar units.

Some solved entries appear below for comparison.
Structure: CCOc1ccc(-c2cn([C@@H]3OC[C@@H](O)[C@H]3O)c3ncnc(Nc4ccc(C#N)cc4)c23)cc1
pIC50: 8.70

Structure: Nc1cccc(-c2cn([C@@H]3OC[C@@H](O)[C@H]3O)c3ncnc(Nc4ccc(F)cc4)c23)c1
pIC50: 8.00

Entry Cc1ccccc1-c1cn([C@@H]2OC[C@@H](O)[C@H]2O)c2ncnc(Nc3ccc4c(c3)OCCO4)c12 under Adenosine kinase (Homo sapiens, UniProt P55263) had pIC50 of 9.00

Param item: CCOc1ccc(Nc2ncnc3c2c(-c2ccccc2)cn3[C@@H]2OC[C@@H](O)[C@H]2O)cc1 ; param system: Adenosine kinase (Homo sapiens, UniProt P55263); output pIC50: 8.52

Known value: Adenosine kinase (Homo sapiens, UniProt P55263) pIC50 of the compound O[C@@H]1[C@H](O)CO[C@H]1n1cc(-c2ccccc2)c2c(Nc3ccc(Br)cc3)ncnc21 equals 8.30

Readout pIC50 for O[C@@H]1[C@H](O)CO[C@H]1n1cc(-c2ccccc2)c2c(Nc3ccc4c(c3)OCCO4)ncnc21 , test system Adenosine kinase (Homo sapiens, UniProt P55263), was 8.40

---

# Assay Remarks: Area under the plot of plasma concentration at a dose of 3 mg/Kg in rat when given orally
# Type: ADME
# Test Parameters: po
Outcome Measure: AUC0-8h (ng·h/mL)
Numbers only; they are read as ng·h/mL.

The reported value for O[C@@H]1[C@H](O)CO[C@H]1n1cc(-c2ccccc2)c2c(Nc3ccc(F)cc3)ncnc21 in terms of AUC0-8h is 1440

---

# Assay Remarks: Plasma clearance at a dose of 3 mg/Kg in dog when given orally
# Assay type: ADME, organism-based, Canis lupus familiaris
# Test Parameters: po
Outcome Measure: CL/F (mL/min/kg)
Number in mL/min/kg, nothing else.

compound O[C@@H]1[C@H](O)CO[C@H]1n1cc(-c2ccccc2)c2c(Nc3ccc(F)cc3)ncnc21 , CL/F observed: 6.67

---

# Assay Remarks: Bioavailability at a dose of 3 mg/Kg in dog when given orally
# Format: ADME, organism-based, Canis lupus familiaris
# Test Parameters: in vivo, po
Outcome Measure: bioavailability (%)
Kindly answer with a numeric value in %, unit omitted.

The compound listed as O[C@@H]1[C@H](O)CO[C@H]1n1cc(-c2ccccc2)c2c(Nc3ccc(F)cc3)ncnc21 shows bioavailability equal to 60

---

Known IC50 of a selection of compounds
# Assayed Target: Adenosine kinase (Homo sapiens, UniProt P55263)
# Assay Remarks: Inhibitory concentration against human recombinant adenosine kinase using [14C]AMP as radioligand
Please reply with the bare figure in nM and do not write the unit itself.

Use these answered entries as a reference point.
Structure: CCOc1cccc(Nc2ncnc3c2c(-c2ccccc2)cn3[C@@H]2OC[C@@H](O)[C@H]2O)c1
IC50, nM: 2

Structure: O[C@@H]1[C@H](O)CO[C@H]1n1cc(-c2ccccc2)c2c(Nc3ccc(F)cc3)ncnc21
IC50, nM: 6

Structure: CCOc1ccc(-c2cn([C@@H]3OC[C@@H](O)[C@H]3O)c3ncnc(Nc4ccccc4OC)c23)cc1
IC50, nM: 5.3

Structure: O[C@H]1[C@H](n2cc(-c3ccccc3)c3c(Nc4ccc(F)cc4)ncnc32)OC2(CC2)[C@H]1O
IC50, nM: 0.3

The recorded IC50 for O[C@@H]1[C@H](O)CO[C@H]1n1cc(-c2ccccc2)c2c(Nc3ccccc3)ncnc21 is 4

Entry under test: Nc1ncnc2c1c(I)cn2[C@@H]1OC[C@@H](O)[C@H]1O . Its IC50 was 6

Given item CC1(C)O[C@@H](n2cc(-c3ccccc3)c3c(Nc4ccccc4)ncnc32)[C@H](O)[C@@H]1O , the value recorded as its IC50 is 4000

GET /value?item= Nc1ncnc2c1c(I)cn2[C@@H]1OC2(CC2)[C@@H](O)[C@H]1O &field=IC50 returns 600

IC50 recorded for this compound, N#Cc1ccc(Nc2ncnc3c2c(-c2ccc(Cl)cc2)cn3[C@@H]2OC[C@@H](O)[C@H]2O)cc1 , is 7

---

# Assay Remarks: Plasma clearance at a dose of 1 mg/Kg in rat when given i.v.
# Format: ADME, organism-based
# Test Parameters: iv
Outcome Measure: clearance (mL/min/kg)
Express your answer in mL/min/kg, writing the number without its unit.

Form: molecule = O[C@@H]1[C@H](O)CO[C@H]1n1cc(-c2ccccc2)c2c(Nc3ccc(F)cc3)ncnc21 ; clearance = 21.7

---

# Assay Remarks: Area under the plot of plasma concentration at a dose of 1 mg/kg in dog when given i.v.
# Assay type: ADME, organism-based, Canis lupus familiaris
# Set-up: dose 1 mg/kg, route intravenous
# Test Parameters: iv, read-out: AUC 0-24h
Outcome Measure: AUC (µg·h/mL)
Response body: numeric value in µg·h/mL, unit text excluded.

// O[C@@H]1[C@H](O)CO[C@H]1n1cc(-c2ccccc2)c2c(Nc3ccc(F)cc3)ncnc21 : AUC value = 2.97

---

# Assay Remarks: Time required to be halved at a dose of 3 mg/Kg in dog when given orally
# Type: ADME, organism-based, Canis lupus familiaris
# Test Parameters: in vivo, po
Outcome Measure: half-life (h)
Field format: number, assumed h, no unit text.

The recorded half-life for entry O[C@@H]1[C@H](O)CO[C@H]1n1cc(-c2ccccc2)c2c(Nc3ccc(F)cc3)ncnc21 equals 4
